B1: HHH_rd1_0493 (parent)
chain: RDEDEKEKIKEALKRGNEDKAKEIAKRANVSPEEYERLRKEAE

Variants of: B1
Experiment: folding stability dG (cDNA display proteolysis); higher = more stable
Settings: PBS, room temperature
Please mark yes (1) if the recorded folding stability dG is equal to or greater than 2 kcal/mol, and no (0) if it falls below.

L13Y ... no (0)
N17H ... yes (1)
E7R ... yes (1)

Decide: is the reported value of folding stability dG for "V30T" equal to or greater than 2 kcal/mol?
no (0)

Decide: is the reported value of folding stability dG for "L38H" equal to or greater than 2 kcal/mol?
no (0)

Decide: is the reported value of folding stability dG for "R37A" equal to or greater than 2 kcal/mol?
yes (1)

Decide: is the reported value of folding stability dG for "R1W" equal to or greater than 2 kcal/mol?
yes (1)

Decide: is the reported value of folding stability dG for "E3A" equal to or greater than 2 kcal/mol?
yes (1)

Decide: is the reported value of folding stability dG for "D2Y" equal to or greater than 2 kcal/mol?
yes (1)

Decide: is the reported value of folding stability dG for "A21R" equal to or greater than 2 kcal/mol?
no (0)

Decide: is the reported value of folding stability dG for "A25L" equal to or greater than 2 kcal/mol?
no (0)

Decide: is the reported value of folding stability dG for "E43C" equal to or greater than 2 kcal/mol?
yes (1)

Decide: is the reported value of folding stability dG for "N29W" equal to or greater than 2 kcal/mol?
no (0)

Every entry's value here was drawn from the MegaScale stability set (Tsuboyama et al. 2023).
